# experiment: soluble fraction after stress (log2 fold change); higher = more stays soluble; pooled small domains, quantitative proteomics
# condition: stress: 50 degC
measurement-label: soluble fraction (log2)
The reply should be a number, written without any unit.

| chain-sequence | soluble fraction (log2) |
| --- | --- |
| HMNAESLIGDRAVVTVAIERNKRGRVDVTGQDWAATTRDGEEIKVGQEVLVVGISGVALIVEER | -0.426 |
| HMDAEVEHLFRIIAELKEKNVAIIYISHKMDEIFRISDDITVYRDGEYIATDRAENLNVDKVIQLMVGREV | -0.339 |

Req: State, in one line, measured soluble fraction (log2) of `HMIKIEDYTNKDYNKVEASLEVKGLVVNIEYKAVDDKAKYKGKEDLIIDQSVKKDATLVKGDTIILYLPK`
Resp: -0.268

Req: State, in one line, measured soluble fraction (log2) of `HMDNEIRIPLPSLQRDGFSIGTREDDGSQLVRIMSAGSFGGMIRSFRLPEGMRIEGAKWEGEIVSIRL`
Resp: 0.0774

Req: State, in one line, measured soluble fraction (log2) of `HMNYTALLNNFSENMKKRRVELSLSQKELASIVGVSVRTIQNYENKKTIPTSAVMESISIALDMGLEKMID`
Resp: -1.27

* * *

# experiment: soluble fraction after stress (log2 fold change); higher = more stays soluble; pooled small domains, quantitative proteomics
# condition: stress: 50 degC
Classify by measured soluble fraction (log2): Yes if it is equal to or exceeds -0.3, No if it is smaller.

# example entries with known answers
| chain-sequence | label-value |
| --- | --- |
| HMDSKPNDLLFVYVSQLIRSLTLNSSKKDSELADELEVSISQIRIWLKKLINEQLIVKESKPVKYRWKG | No |
| HMRMTRQRKVILEELGKVYTHPTADEIYTMVKEKLPNISLGTVYRNLDLLAENNQVLKLETAGNIRRYD | Yes |
| HMPFGIYGGKVSSLDDLKDKAAVLVPNDVSNEARALLLLEAQGLIKLKEGVGLEATRNDIVEN | Yes |
| HMQNEQIAFSKFLQEVDSGRVVQVEIQGNNIKGILSDGSKFYTYSPNYPELVGKLSEKGVNIVASPVE | Yes |
| HMVRDGDTFVVPKMDRFARNVEDTLHLVRELTERGVIFQMGHTVYDPHDPWSKLFLTFLAAIAEA | Yes |
| HMSAEVMLRRLIDENDPSSENARYILAVMLERKKILAPVDVKNEKKSKMLFYEHQKTGEAFIVRDP | Yes |

Req: API: above_or_equal(metric=soluble fraction (log2), cutoff=-0.3) for item `HMAGDDEIEKIAQDILAAWPDKVAAYQAGNKGLMGLFMGELMKKSQGKANPKVASGIIQKLLD`
Resp: Yes

Req: API: above_or_equal(metric=soluble fraction (log2), cutoff=-0.3) for item `HMEGTAAAVALKGLMEQSGVDLREVMAAVESRGYYPKGTPFENYDPAFVSGVLVGAWDQVYKMILDQRPIP`
Resp: Yes

Req: API: above_or_equal(metric=soluble fraction (log2), cutoff=-0.3) for item `HMEGSVTVMVNGESVTMTGKQNYIFVDVFDWYSFDLSAGKGRAIATLVNGKEAEFSQPLANGDNIELYWKE`
Resp: Yes

Req: API: above_or_equal(metric=soluble fraction (log2), cutoff=-0.3) for item `HMNSKSFIFHIEDEEGIRLDVFLADNLPDVSRSYVQKLIDEEHVKVNGQSAKSRLKTVSGMEITVDVPAPK`
Resp: No

Req: API: above_or_equal(metric=soluble fraction (log2), cutoff=-0.3) for item `HMTMKQVFIETDANVNQKIMLNEKEAHHLFDVLRTSDKETIRVVTNTSQVFLARVQQKPYIYLFDKMTVE`
Resp: No

Req: API: above_or_equal(metric=soluble fraction (log2), cutoff=-0.3) for item `HMTDDFAGRFNELLIHNQETAVTAATRLEVSPAVITKWRQGKSIPSGEYIKRIVETYHVSADYLLGVIDTP`
Resp: No

Req: API: above_or_equal(metric=soluble fraction (log2), cutoff=-0.3) for item `HMEDVLVTQIIQLKHVDANDMKTLFTPLLSRGSSQLLAYPQSNVLIITDTRSNIKKITEILDIIDKS`
Resp: No

Req: API: above_or_equal(metric=soluble fraction (log2), cutoff=-0.3) for item `HMEDPLGDLIGRIAAATGRPVQDIVAEVHRVVTDHFDGNLRVEAAAVILARKYGVAFEDKLSALQRSV`
Resp: Yes

Req: API: above_or_equal(metric=soluble fraction (log2), cutoff=-0.3) for item `HMKNKRERLGIISEILRMQVIGSQEELLDILRAKGYDVTQATLSRDLKVLKVAKTPLSNGAYKYVLPPQ`
Resp: Yes

Req: API: above_or_equal(metric=soluble fraction (log2), cutoff=-0.3) for item `HMPLSVRQRMSDILSNLKTSDFTNFADLFDPKEGRTGITVTFIAILELLREFLIEVVQSDHYQPLHVRAAS`
Resp: Yes

Req: API: above_or_equal(metric=soluble fraction (log2), cutoff=-0.3) for item `HMNRIGERIKRKRELRNLNLGELAEKVGISASALSQIEKSKSFPSVITLKSIAEQLRTTVGELIGEN`
Resp: Yes
